# protocolDetails: Antiproliferative activity against human WSU-DLCL2 cells after 72 hrs by CellTiter-Glo luminescent cell viability assay
# Type: functional, cell-based
# measurementContext: WSUDLCL2, 72 h
Please respond with reported IC50 for every item in the list.
Numbers only, in nM.

Past entries and their recorded results:
| moleculeSmiles | quantityUnit | quantitativeReadout |
| --- | --- | --- |
| C=CC(=O)N1CCC[C@@H](n2nc(C#CCOc3ccccc3)c3c(N)ncnc32)C1 | nM | 395 |
| C#CC(=O)N1CCC[C@@H](n2nc(C#CCOc3ccccc3)c3c(N)ncnc32)C1 | nM | 14.1 |

Continue with the compound presented below.
[in] Request the reported IC50 associated with C=CC(=O)N1CCC[C@@H](n2nc(-c3ccc(Oc4ccccc4)cc3)c3c(N)ncnc32)C1
[out] 487

Provenance of the data: ChEMBL document CHEMBL4371038
